# ASSAY_PROTOCOL: LD50 of the hydrochloride
# TEST_SETTINGS: in vivo, po
Where a name gives a salt, the structure may show the parent alone.
MEASURED_ATTRIBUTE: LD50

Challenge: Please report the recorded LD50 for CC(=O)Oc1cc2c(cc1OC(C)=O)OC(=O)[C@@H](N)C2 [hydrochloride] .
Response given: 1000 to 2000 mg/kg

----------
# ASSAY_PROTOCOL: LD50 of the hydrochloride
# TEST_SETTINGS: in vivo, iv
Counter-ions that a name gives are not always drawn.
MEASURED_ATTRIBUTE: LD50

Challenge: Please report the recorded LD50 for CC(=O)Oc1cc2c(cc1OC(C)=O)OC(=O)[C@@H](N)C2 [hydrochloride] .
Response given: 30 to 60 mg/kg
